Cited source for all entries: patent US10363239B2

Target: FLNA pentapeptide of SEQ ID NO: 1 (Bn-VAKGL) (Homo sapiens)
Assay: FITC-NLX-based FLNA screening assay (inhibition of FITC-naloxone binding to Bn-VAKGL on streptavidin plates)
Settings: FLNA-binding compound 0.01 μM; 10 nM FITC-NLX; read-out: Percent Binding Inhibition
Quantity: inhibition at 0.01 µM (%)

COc1ccc(CN2CCC3(CC2)OCCN3S(=O)(=O)c2ccc(OC)cc2)cc1    31.7
CC(=O)N1CCSC12CCN(S(=O)(=O)c1ccc([N+](=O)[O-])cc1)CC2    26.7
CS(=O)(=O)c1ccc(S(=O)(=O)N2CCOC23CCN(CC2CC2)CC3)cc1 [Compound C0126M]    50.7
COc1ccc(S(=O)(=O)N2CCOC23CCNCC3)cc1    50.8
CCN1CCC2(CC1)OCCN2S(=O)(=O)c1ccc(C(C)=O)cc1 [Compound C0094M]    43
CC1CN(CC(O)COc2cccc(N(C)C)c2)CC(C)O1 (centres unmarked)    47.2
CC(=O)c1ccc(C(=O)N2CCC3(CC2)OCCN3C(=O)c2ccc(C(C)=O)cc2)cc1    32.9
CC(=O)c1ccc(S(=O)(=O)N2CCC3(CC2)OCC(CCCCN(C)C)N3S(=O)(=O)c2ccc(C(C)=O)cc2)cc1 (centres unmarked)    46.8
CC1CN(CC(O)COc2ccc(Br)c(Cl)c2)CC(C)O1 (centres unmarked)    28.1
COc1ccc(S(=O)(=O)N2CCC3(OCCN3S(=O)(=O)c3ccc(OC)cc3)C3CCCCC32)cc1 (centres unmarked) [Compound C0144M]    46.4
COc1ccc(C(=O)N2CCC3(CC2)OCCN3S(=O)(=O)c2ccc(OC)cc2)cc1    42.3
